System: ATP;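 also: ATP exposure 15 min at 22 °C before imaging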
METHOD DESCRIPTION: switch fluorescence ratio, 500 uM ATP over buffer (Cy3 cluster intensity, sum of 5 cycles each) (fold (ratio)); higher = stronger signal-on switching upon ATP binding; sequences stand for … in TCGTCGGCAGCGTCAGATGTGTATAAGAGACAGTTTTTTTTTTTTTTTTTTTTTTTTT…TC
EXPERIMENTAL SETUP: aptamer strand: ATP DNA aptamer (quencher-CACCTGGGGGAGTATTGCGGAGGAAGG + anchor), 100 nM annealed; ATP concentration: 500 uM
Recorded switch fluorescence ratio values for a group of sequences are listed next.

- SEQUENCE DATA: "TAAATTTATT"
  TEST TARGET: "ATP"
  switch fluorescence ratio: 1.01
- SEQUENCE DATA: "AAGCTCGTGC"
  TEST TARGET: "ATP"
  switch fluorescence ratio: 0.973
- SEQUENCE DATA: "GATGTGGGTG"
  TEST TARGET: "ATP"
  switch fluorescence ratio: 0.996
- SEQUENCE DATA: "AGAGTGCGGT"
  TEST TARGET: "ATP"
  switch fluorescence ratio: 1.01
- SEQUENCE DATA: "ATTTGAAGAG"
  TEST TARGET: "ATP"
  switch fluorescence ratio: 1.01
- SEQUENCE DATA: "TGTCGACCG"
  TEST TARGET: "ATP"
  switch fluorescence ratio: 0.99
- SEQUENCE DATA: "TTTAACAACT"
  TEST TARGET: "ATP"
  switch fluorescence ratio: 1.01
- SEQUENCE DATA: "TTTAAAATCT"
  TEST TARGET: "ATP"
  switch fluorescence ratio: 1.02
- SEQUENCE DATA: "GGGATTCGTC"
  TEST TARGET: "ATP"
  switch fluorescence ratio: 0.994
- SEQUENCE DATA: "TGGTTGGGGC"
  TEST TARGET: "ATP"
  switch fluorescence ratio: 0.986
- SEQUENCE DATA: "CGTGAGAGTG"
  TEST TARGET: "ATP"
  switch fluorescence ratio: 0.978
- SEQUENCE DATA: "CGGTTTGAGT"
  TEST TARGET: "ATP"
  switch fluorescence ratio: 0.983
- SEQUENCE DATA: "TTTCTTGGTT"
  TEST TARGET: "ATP"
  switch fluorescence ratio: 0.991
- SEQUENCE DATA: "AGTTGGTCTA"
  TEST TARGET: "ATP"
  switch fluorescence ratio: 1
- SEQUENCE DATA: "TTCAGTCCGG"
  TEST TARGET: "ATP"
  switch fluorescence ratio: 1.01
- SEQUENCE DATA: "TTCTGCAGGT"
  TEST TARGET: "ATP"
  switch fluorescence ratio: 0.995
- SEQUENCE DATA: "CTTGTATCGT"
  TEST TARGET: "ATP"
  switch fluorescence ratio: 0.971
- SEQUENCE DATA: "AGGGTGGGTA"
  TEST TARGET: "ATP"
  switch fluorescence ratio: 0.977
- SEQUENCE DATA: "TAGTATGGGG"
  TEST TARGET: "ATP"
  switch fluorescence ratio: 0.976
- SEQUENCE DATA: "GGGGTAGGCA"
  TEST TARGET: "ATP"
  switch fluorescence ratio: 0.974
